# Measurement description: protein stability index of a GFP-peptide fusion (GPS, HEK-293T) (PSI 1-6); higher = more stable;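 further: 24-mer peptide tiles fused after GFP, lentivirally expressed, FACS-sorted into six equal bins by GFP/DsRed ratio, decoded by Illumina sequencing, PSI is the read-weighted mean bin number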
# Test context: treatment: MLN4924 1 uM, 8 h; c terminus: a fixed tail appended
I would appreciate it if you labelled entries condition met when protein stability index is 3 or higher, otherwise condition not met.

Exam item: decide whether the reported protein stability index for LCEPDPVHFSEAIEKFIREPSLKA [ALG2] is at least 3.
condition met

Exam item: decide whether the reported protein stability index for PKSPATPKQLRLINQPLPDLKNVK [MAP2] is at least 3.
condition met

Exam item: decide whether the reported protein stability index for VQTPPGGSEVVPVISPMYQLHKPL [IKZF1] is at least 3.
condition met

Exam item: decide whether the reported protein stability index for TKNKSKHALRKKQLKRQKRDYIHS [FAM9B] is at least 3.
condition met

Exam item: decide whether the reported protein stability index for VITIKSESTFKNTEISFILGQEFD [FABP4] is at least 3.
condition not met

Exam item: decide whether the reported protein stability index for QALAGASSGRELGRPKELQPKKLH [ZNF263] is at least 3.
condition met

Exam item: decide whether the reported protein stability index for RDSLTQPDEEPMHYGNIMYDRRVI [RSPH3] is at least 3.
condition met

Exam item: decide whether the reported protein stability index for LCIHTGRELRCKVFPIKHYQDKIR [TRIB1] is at least 3.
condition not met

Exam item: decide whether the reported protein stability index for IPMHIDHDRNMDWVSTQLQATCNV [FADS1] is at least 3.
condition met

Exam item: decide whether the reported protein stability index for FKKGKNPTGLLALQQIADFMTTNV [ADD1] is at least 3.
condition not met

Exam item: decide whether the reported protein stability index for APPLQAETPGSAVDYPLHDLVLHT [TNXB] is at least 3.
condition met

Exam item: decide whether the reported protein stability index for RVERRFHFSQSLTVIHDFLFSLKE [FAF2] is at least 3.
condition not met

Exam item: decide whether the reported protein stability index for LGLAGRCLTLTPRPATEAELLTCH [HDAC6] is at least 3.
condition not met

Exam item: decide whether the reported protein stability index for AHRAILVARCEVMAAMFNGNYMEA [RHOBTB3] is at least 3.
condition not met

Exam item: decide whether the reported protein stability index for AGNDDSFGSLPSPKELSSFSFSMK [DLC1] is at least 3.
condition met

Exam item: decide whether the reported protein stability index for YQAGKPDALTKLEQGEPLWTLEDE [ZNF649] is at least 3.
condition met

Exam item: decide whether the reported protein stability index for ILAHLTGTEFMQDPDEEHLKKSSQ [PDLIM7] is at least 3.
condition met

----------
# Measurement description: protein stability index of a GFP-peptide fusion (GPS, HEK-293T) (PSI 1-6); higher = more stable
# Test context: treatment: MLN4924 1 uM, 8 h; c terminus: a fixed tail appended
I would appreciate it if you labelled entries true (1) when protein stability index is 3 or higher, otherwise false (0).

Exam item: decide whether the reported protein stability index for RKHSDLEEEEERWEWSPAGLQSYQ [SERTAD3] is at least 3.
true (1)

Exam item: decide whether the reported protein stability index for LKHWRRAMELRHQGGEYLPKPEPP [FEM1A] is at least 3.
true (1)

Exam item: decide whether the reported protein stability index for RRNEETPEEGQQPWLCGESFTLAD [GDAP1] is at least 3.
true (1)

Exam item: decide whether the reported protein stability index for KKGSNGYGFYLRAGSEQKGQIIKD [PDZK1] is at least 3.
true (1)

Exam item: decide whether the reported protein stability index for SKSADNQEYFERHRWPPVWYLKEE [RHOBTB1] is at least 3.
true (1)

Exam item: decide whether the reported protein stability index for GGLVVSAASLAGCLGALCENTCLL [TSPAN10] is at least 3.
false (0)

Exam item: decide whether the reported protein stability index for EEVDVTSVDPIAAFCSSDEELEDS [RBBP5] is at least 3.
true (1)

Exam item: decide whether the reported protein stability index for WRNLGVQQSQGWVHYMIHEPEPHI [CKS1B] is at least 3.
false (0)

Exam item: decide whether the reported protein stability index for CFQDFKEEKPQENKTWREQYLRLP [ELOA2] is at least 3.
true (1)

Exam item: decide whether the reported protein stability index for VLEWGAEGVAGKSGLEKEVQRLTS [FCHSD1] is at least 3.
true (1)

Exam item: decide whether the reported protein stability index for EAWYEDLQEVLSSDENGGTYVSPP [DDIT3] is at least 3.
true (1)

Exam item: decide whether the reported protein stability index for DFVLEMNTAKSTSRVTAFLDDLSQ [NLN] is at least 3.
false (0)

Exam item: decide whether the reported protein stability index for LSRQEFLGMVGLFGTIISGIQLLI [SLC35F2] is at least 3.
false (0)

Exam item: decide whether the reported protein stability index for EQKTGTEAEAADSGAVGARRFLLC [MFSD9] is at least 3.
true (1)

Exam item: decide whether the reported protein stability index for PIDQGPAIGRVRVLEEQLVKAKEQ [FUT8] is at least 3.
true (1)

Exam item: decide whether the reported protein stability index for ADSQITTIGNLVPQKTYSVKVLAF [PTPRD] is at least 3.
false (0)

Exam item: decide whether the reported protein stability index for NASRSLYPDAEDPQLGLDGPGEPD [PSD2] is at least 3.
true (1)

Exam item: decide whether the reported protein stability index for GELEDESLNRACHQQNKIKDLQKE [CEP70] is at least 3.
true (1)

Exam item: decide whether the reported protein stability index for RKVKSTITLDGGVLVHVQKWDGKS [FABP4] is at least 3.
true (1)

Exam item: decide whether the reported protein stability index for QEHSNSVGGQDTGATWRTSGLLEE [C18orf25] is at least 3.
true (1)

Exam item: decide whether the reported protein stability index for TGERPYECNECGKAFSRSSGLFNH [ZSCAN9] is at least 3.
false (0)

Exam item: decide whether the reported protein stability index for TKETEQLRSQLQTLKQQHQQAVEQ [CCDC89] is at least 3.
true (1)

Exam item: decide whether the reported protein stability index for MARVAWGLLWLLLGSAGAQYEKYS [P3H4] is at least 3.
true (1)

Exam item: decide whether the reported protein stability index for GVEVIVRISHTLYDLDKIIELNGG [CRY1] is at least 3.
false (0)

Exam item: decide whether the reported protein stability index for TLKKFKGDLAYRRQEYQKALQEYS [C8orf76] is at least 3.
false (0)

Exam item: decide whether the reported protein stability index for PARDGVEASAEGPRAVFVLLEERR [TFE3] is at least 3.
true (1)

Exam item: decide whether the reported protein stability index for FTGNSKLELNFKAGDVIFLLSRIN [NCF4] is at least 3.
true (1)

Exam item: decide whether the reported protein stability index for MAERLEDSVLKGMQAASSKMVSAE [SDE2] is at least 3.
true (1)

Exam item: decide whether the reported protein stability index for LLVLCEDHRGRMVKHQCCPGCGYF [EHMT1] is at least 3.
false (0)

Exam item: decide whether the reported protein stability index for ASYSGKAADVWSLGVALFTMLAGH [TRIB3] is at least 3.
false (0)

Exam item: decide whether the reported protein stability index for EESGAQLLLEMLTFNPHKRISAFR [CDK4] is at least 3.
false (0)

Exam item: decide whether the reported protein stability index for HTMEEEEDDDWGEDTTEEAQRRRM [EIF5] is at least 3.
true (1)

Exam item: decide whether the reported protein stability index for AAAFPTEDSRTSKESMSEADRAQK [EHMT1] is at least 3.
true (1)

Exam item: decide whether the reported protein stability index for QRRRRVENAGGSPSPEPAGRRAAL [RSAD1] is at least 3.
true (1)

Exam item: decide whether the reported protein stability index for ETVVNRIAAGEVIQRPANAIKEMI [MLH1] is at least 3.
true (1)

Exam item: decide whether the reported protein stability index for LLDGLARRVGILGEELADVGGVLR [SCARA5] is at least 3.
false (0)

Exam item: decide whether the reported protein stability index for VSGINGDIRAKKIASIADVCESMK [HNF4A] is at least 3.
true (1)
